Source: paper PMC4559881

Test: Blood pharmacokinetics and brain penetration in the rat, 30 μmol/kg oral
Assay type: in vivo
Settings: male, Sprague Dawley, 30 umol/kg, blood
Description: In vivo blood pharmacokinetics and brain penetration was investigated in the rat.

[
  {
    "Compound structure string": "Cc1cc(C#N)cnc1C(=O)Nc1ccc(F)c([C@]2(C)CO[C@@](C)(C(F)(F)F)C(N)=N2)c1",
    "Scale unit": "nM",
    "Cmax": 1620
  }
]

###

Test: Dog PK/PD study: NB-360 exposure in blood and CSF
Type: in vivo
Conditions: male, Beagle, blood, po, 0.5 mg/kg p.o.
Measurement label: concentration at 168 h (nM)

[
  {
    "Compound": "Cc1cc(C#N)cnc1C(=O)Nc1ccc(F)c([C@]2(C)CO[C@@](C)(C(F)(F)F)C(N)=N2)c1 [NB-360]",
    "Value reported": 23
  }
]

###

Experiment: Pharmacokinetics after i.v. and oral application, rat
Conditions: male, Sprague Dawley, blood, iv, 2 umol/kg
Measurement label: clearance

[
  {
    "Compound structure string": "Cc1cc(C#N)cnc1C(=O)Nc1ccc(F)c([C@]2(C)CO[C@@](C)(C(F)(F)F)C(N)=N2)c1",
    "Measurement label": "clearance",
    "Value reported": "52 mL/min/kg"
  }
]
